# subject of test: recombinant human GR (Homo sapiens)
# Construct: purchased Panvera/Invitrogen P2812 (kit P2893)
# protocol details: Human Glucocorticoid Receptor (GR) Assay (fluorescence polarization competition, Panvera/Invitrogen kit)
# test conditions: GS Red Fluoromone tracer, 2 hours at room temperature, 100% control 10 μM Dexamethasone, read-out: Inhibition of GR binding, IC50
Could you please report measured IC50 for the items listed next?
# include the unit after the value

Would you please look over these solved cases?
INSERT INTO measurements (compound, readout_value) VALUES
  ('CCC(=O)O[C@]1(C(=O)SCC#N)CC[C@H]2[C@@H]3C[C@H](C)C4=Cc5c(cnn5-c5ccc(F)nc5)C[C@]4(C)[C@H]3[C@@H](O)C[C@@]21C', '1 nM'),
  ('COCC(=O)O[C@]1(C(=O)SCF)[C@H](C)C[C@H]2[C@@H]3CCC4=Cc5c(cnn5-c5ccc(F)nc5)C[C@]4(C)[C@@]3(F)[C@@H](O)C[C@@]21C', '3.5 nM'),
  ('C[C@@H]1C[C@H]2[C@@H]3CCC4=Cc5c(cnn5-c5ccc(F)cc5)C[C@]4(C)[C@@]3(F)[C@@H](O)C[C@]2(C)[C@@]1(OC(=O)c1cocn1)C(=O)SCF', '15 nM'),
  ('C[C@H]1C[C@@H]2[C@H]([C@@H](O)C[C@@]3(C)[C@H]2CC[C@]3(OC(=O)c2ccco2)C(=O)SCC#N)[C@@]2(C)Cc3cnn(-c4ccc(F)nc4)c3C=C12', '1.7 nM'),
  ('C[C@]12Cc3cnn(-c4ccc(F)nc4)c3C=C1CC[C@H]1[C@@H]3CC[C@](OC(=O)C4CCOC4)(C(=O)SCF)[C@@]3(C)C[C@H](O)[C@@]12F (single isomer, unassigned) [16 (R)/(S) isomer]', '0.44 nM');

Batch of 3 compounds: report IC50 for each.
1. COCC(=O)O[C@]1(C(=O)SCC#N)[C@H](C)C[C@H]2[C@@H]3CCC4=Cc5c(cnn5-c5ccc(F)nc5)C[C@]4(C)[C@@]3(F)[C@@H](O)C[C@@]21C
2. CCC(=O)O[C@]1(C(=O)SCC#N)[C@H](C)C[C@H]2[C@@H]3CCC4=Cc5c(cnn5-c5ccc(F)cc5)C[C@]4(C)[C@@]3(F)[C@@H](O)C[C@@]21C
3. C[C@]12Cc3cnn(-c4ccc(F)nc4)c3C=C1CC[C@H]1[C@@H]3CC[C@](OC(=O)C4CCOC4)(C(=O)SCC#N)[C@@]3(C)C[C@H](O)[C@@]12F (single isomer, unassigned) [15 (S)/(R) isomer]

Data returned:
1.6 nM
17 nM
0.58 nM

====

Could you please report measured IC50 for the items listed next?
# subject of test: recombinant human GR (Homo sapiens, UniProt P04150)
# Construct: purchased Panvera/Invitrogen P2812 (kit P2893)
# Sequence (P04150 whole entry): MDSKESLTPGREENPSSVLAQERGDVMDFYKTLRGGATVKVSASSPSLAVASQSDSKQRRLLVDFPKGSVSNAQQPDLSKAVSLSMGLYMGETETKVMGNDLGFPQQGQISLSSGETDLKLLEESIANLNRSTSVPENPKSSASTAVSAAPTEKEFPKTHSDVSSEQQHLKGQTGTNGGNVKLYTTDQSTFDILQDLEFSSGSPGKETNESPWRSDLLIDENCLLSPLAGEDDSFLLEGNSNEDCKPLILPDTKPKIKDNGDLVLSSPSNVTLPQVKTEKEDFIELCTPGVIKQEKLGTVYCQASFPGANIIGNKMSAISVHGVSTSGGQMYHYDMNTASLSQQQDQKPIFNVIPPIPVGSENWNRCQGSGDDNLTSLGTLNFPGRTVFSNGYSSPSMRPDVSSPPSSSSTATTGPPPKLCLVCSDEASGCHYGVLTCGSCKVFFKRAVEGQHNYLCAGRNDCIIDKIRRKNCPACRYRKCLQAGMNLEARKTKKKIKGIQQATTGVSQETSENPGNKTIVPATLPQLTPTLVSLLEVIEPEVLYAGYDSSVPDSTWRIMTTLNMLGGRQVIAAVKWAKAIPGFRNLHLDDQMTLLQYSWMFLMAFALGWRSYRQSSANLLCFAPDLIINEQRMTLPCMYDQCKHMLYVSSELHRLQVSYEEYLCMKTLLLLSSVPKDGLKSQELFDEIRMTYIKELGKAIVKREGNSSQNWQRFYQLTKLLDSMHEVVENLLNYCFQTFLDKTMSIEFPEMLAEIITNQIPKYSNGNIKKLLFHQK
# protocol details: Human Glucocorticoid Receptor (GR) Assay (fluorescence polarization competition, Panvera/Invitrogen kit)
# test conditions: GS Red Fluoromone tracer, 2 hours at room temperature, 100% control 10 μM Dexamethasone, read-out: Inhibition of GR binding, IC50
Answers are plain numbers, in nM.

INSERT INTO assay_data (compound, subject_of_test, readout_value) VALUES
  ('C[C@]12Cc3cnn(-c4ccc(F)nc4)c3C=C1CC[C@H]1[C@@H]3CC[C@](OC(=O)C4CCOC4)(C(=O)SCC#N)[C@@]3(C)C[C@H](O)[C@@]12F (mixture of isomers) [Example 15 (racemate)]', 'recombinant human GR (Homo sapiens, UniProt P04150)', 0.55),
  ('CCC(=O)O[C@]1(C(=O)SCF)CC[C@H]2[C@@H]3C[C@H](C)C4=Cc5c(cnn5-c5ccc(F)nc5)C[C@]4(C)[C@H]3[C@@H](O)C[C@@]21C [Example 7]', 'recombinant human GR (Homo sapiens, UniProt P04150)', 1.9);

Batch of 6 compounds: report IC50 for each.
1. C[C@H]1C[C@@H]2[C@H]([C@@H](O)C[C@@]3(C)[C@H]2CC[C@]3(OC(=O)c2cocn2)C(=O)SCC#N)[C@@]2(C)Cc3cnn(-c4ccc(F)nc4)c3C=C12 [Example 10]
2. C[C@]12Cc3cnn(-c4ccc(F)nc4)c3C=C1CC[C@H]1[C@@H]3CC[C@](OC(=O)[C@H]4CCCO4)(C(=O)SCCO)[C@@]3(C)C[C@H](O)[C@@]12F [Example 14]
3. C[C@]12Cc3cnn(-c4ccc(F)nc4)c3C=C1CC[C@H]1[C@@H]3CC[C@](OC(=O)C4CCOC4)(C(=O)SCF)[C@@]3(C)C[C@H](O)[C@@]12F (mixture of isomers) [Example 16 (racemate)]
4. C[C@]12Cc3cnn(-c4ccc(F)nc4)c3C=C1CC[C@H]1[C@@H]3CC[C@](OC(=O)C4CCOC4)(C(=O)SCF)[C@@]3(C)C[C@H](O)[C@@]12F (single isomer, unassigned) [16 (S)/(R) isomer]
5. C[C@]12Cc3cnn(-c4ccc(F)nc4)c3C=C1CC[C@H]1[C@@H]3CC[C@](OC(=O)[C@H]4CCCO4)(C(=O)SCF)[C@@]3(C)C[C@H](O)[C@@]12F [Example 13]
6. C[C@@H]1C[C@H]2[C@@H]3CCC4=Cc5c(cnn5-c5ccc(F)cc5)C[C@]4(C)[C@@]3(F)[C@@H](O)C[C@]2(C)[C@@]1(OC(=O)c1cocn1)C(=O)SCC#N [Example 29]

Data returned:
[0.89, 0.65, 0.53, 1.3, 0.98, 5.5]

Batch of 2 compounds: report IC50 for each.
1. COCC(=O)O[C@]1(C(=O)SCF)CC[C@H]2[C@@H]3C[C@H](C)C4=Cc5c(cnn5-c5ccc(F)nc5)C[C@]4(C)[C@H]3[C@@H](O)C[C@@]21C [Example 8]
2. CC12Cc3cnn(-c4ccc(F)nc4)c3C=C1CC[C@@H]1C2[C@@H](O)C[C@@]2(C)[C@H]1CC[C@]2(OC(=O)C1CC1)C(=O)OCC#N (stereo in doubt) [Example 20]

Data returned:
0.93
2.3

====

Could you please report measured IC50 for the items listed next?
# subject of test: recombinant human GR (Homo sapiens, UniProt P04150)
# protocol details: Human Glucocorticoid Receptor (GR) Assay (fluorescence polarization competition, Panvera/Invitrogen kit)
# test conditions: GS Red Fluoromone tracer, 2 hours at room temperature, 100% control 10 μM Dexamethasone, read-out: Inhibition of GR binding, IC50
Answers are plain numbers, in nM.

INSERT INTO assay_data (compound, subject_of_test, result_units, readout_value) VALUES
  ('COCC(=O)O[C@]1(C(=O)SCF)[C@H](C)C[C@H]2[C@@H]3CCC4=Cc5c(cnn5-c5ccc(F)cc5)C[C@]4(C)[C@@]3(F)[C@@H](O)C[C@@]21C [Example 6]', 'recombinant human GR (Homo sapiens, UniProt P04150)', 'nM', 7.8);

Batch of 2 compounds: report IC50 for each.
1. C[C@]12Cc3cnn(-c4ccc(F)cc4)c3C=C1CC[C@@H]1[C@@H]2[C@@H](O)C[C@@]2(C)[C@H]1CC[C@]2(OC(=O)C1CCCO1)C(=O)SCCO (single isomer, unassigned) [Example 18]
2. COCC(=O)O[C@]1(C(=O)SCC#N)CC[C@H]2[C@@H]3C[C@H](C)C4=Cc5c(cnn5-c5ccc(F)nc5)C[C@]4(C)[C@H]3[C@@H](O)C[C@@]21C [Example 24]

Data returned:
3.1
1.1

====

# subject of test: recombinant human GR (Homo sapiens)
# protocol details: Human Glucocorticoid Receptor (GR) Assay (fluorescence polarization competition, Panvera/Invitrogen kit)
# test conditions: GS Red Fluoromone tracer, 2 hours at room temperature, 100% control 10 μM Dexamethasone, read-out: Inhibition of GR binding, IC50
readout type: IC50 (nM)
One number for each entry, in nM.

INSERT INTO results (compound, result_units, readout_value) VALUES
  ('COCC(=O)O[C@]1(C(=O)SCC#N)[C@H](C)C[C@H]2[C@@H]3CCC4=Cc5c(cnn5-c5ccc(F)cc5)C[C@]4(C)[C@@]3(F)[C@@H](O)C[C@@]21C', 'nM', 6),
  ('CCC(=O)O[C@]1(C(=O)SCF)[C@H](C)C[C@H]2[C@@H]3CCC4=Cc5c(cnn5-c5ccc(F)cc5)C[C@]4(C)[C@@]3(F)[C@@H](O)C[C@@]21C', 'nM', 11),
  ('C[C@H]1C[C@@H]2[C@H]([C@@H](O)C[C@@]3(C)[C@H]2CC[C@]3(OC(=O)c2ccco2)C(=O)SCF)[C@@]2(C)Cc3cnn(-c4ccc(F)nc4)c3C=C12', 'nM', 2.8),
  ('CCC(=O)O[C@]1(C(=O)SCC#N)[C@H](C)C[C@H]2[C@@H]3CCC4=Cc5c(cnn5-c5ccc(F)nc5)C[C@]4(C)[C@@]3(F)[C@@H](O)C[C@@]21C', 'nM', 1.6),
  ('CCC(=O)O[C@]1(C(=O)SCF)[C@H](C)C[C@H]2[C@@H]3CCC4=Cc5c(cnn5-c5ccc(F)nc5)C[C@]4(C)[C@@]3(F)[C@@H](O)C[C@@]21C', 'nM', 1.9),
  ('C[C@]12Cc3cnn(-c4ccc(F)nc4)c3C=C1CC[C@H]1[C@@H]3CC[C@](OC(=O)[C@H]4CCCO4)(C(=O)SCC#N)[C@@]3(C)C[C@H](O)[C@@]12F', 'nM', 1),
  ('C[C@H]1C[C@@H]2[C@H]([C@@H](O)C[C@@]3(C)[C@H]2CC[C@]3(OC(=O)C2CC2)C(=O)SCC#N)[C@@]2(C)Cc3cnn(-c4ccc(F)nc4)c3C=C12', 'nM', 2.1),
  ('C[C@H]1C[C@@H]2[C@H]([C@@H](O)C[C@@]3(C)[C@H]2CC[C@]3(OC(=O)C2CC2)C(=O)SCF)[C@@]2(C)Cc3cnn(-c4ccc(F)nc4)c3C=C12', 'nM', 1.2),
  ('C[C@]12Cc3cnn(-c4ccc(F)nc4)c3C=C1CC[C@H]1[C@@H]3CC[C@](OC(=O)C4CCOC4)(C(=O)SCC#N)[C@@]3(C)C[C@H](O)[C@@]12F (single isomer, unassigned) [15 (R)/(S) isomer]', 'nM', 0.57);

// next item, IC50 requested
Data request: // returns reported IC50 for input C[C@]12Cc3cnn(-c4ccc(F)nc4)c3C=C1CC[C@H]1[C@@H]3CC[C@](OC(=O)[C@@H]4CCCO4)(C(=O)SCC#N)[C@@]3(C)C[C@H](O)[C@@]12F
Data returned: 0.55
